Test system: DLD1
protocol.description: TCF/Wnt firefly luciferase reporter signal relative to plate median (fraction of plate median); higher = higher Wnt reporter signal
measurement.context: 5 µM; treatment time 24 h; reporter: 7TFP
metric: TCF/Wnt firefly luciferase reporter signal
Lab note: jot down the number only; don't add units.

Please review the following examples before continuing.
compound: O=C(/C=C/c1ccccc1)c1ccc(O)cc1
observed: 0.88

compound: COc1cnc(NS(=O)(=O)c2ccc(N)cc2)nc1
observed: 1.04

compound: O=C(O)c1cc2cc(F)ccc2[nH]1
observed: 0.963

compound: COc1c(-c2coc3cc4c(cc3c2=O)CC(O)C(C)(C)O4)ccc2c1C=CC(C)(C)O2 (stereo unspecified)
observed: 0.869

compound: NC(=O)c1ncn([C@@H]2O[C@H](CO)[C@@H](O)[C@H]2O)c1N
observed: 1

# evaluate next
// TCF/Wnt firefly luciferase reporter signal (DLD1) for CCN(CC)CCNC(=O)c1cc(Br)c(N)cc1OC = 0.985

====

System: DLD1
protocol.description: TCF/Wnt firefly luciferase reporter signal relative to plate median (fraction of plate median); higher = higher Wnt reporter signal
measurement.context: 5 µM; treatment time 24 h; reporter: 7TFP
metric: TCF/Wnt firefly luciferase reporter signal
The answer should be written as a number, with no unit following it.

compound: COc1cc(O)c(C(=O)/C=C/c2ccc(OC)c(O)c2)c(OC)c1
observed: 0.975

The reported TCF/Wnt firefly luciferase reporter signal of the compound Nc1ccc(S(=O)(=O)Nc2ccc(Cl)nn2)cc1 was 0.954

Item: COc1ccc(/C=C/C(=O)c2cc(O)ccc2O)cc1 | TCF/Wnt firefly luciferase reporter signal: 1.18

// field: TCF/Wnt firefly luciferase reporter signal; key: CN(C)c1ccc(O)c2c1C[C@H]1C[C@H]3[C@H](N(C)C)C(O)=C(C(N)=O)C(=O)[C@@]3(O)C(O)=C1C2=O ; value = 1.05

# compound Nc1ccc(S(=O)(=O)Nc2nccs2)cc1 ; its TCF/Wnt firefly luciferase reporter signal = 0.999

GET /value?item= CO[C@H]1O[C@H](CO)C(O[C@@H]2OC(C(=O)O)[C@@H](O[C@H]3O[C@H](COS(=O)(=O)O)C(O[C@@H]4OC(C(=O)O)[C@@H](O[C@H]5O[C@H](CO)C(O[C@@H]6OC(C(=O)O)[C@@H](O[C@H]7O[C@H](COS(=O)(=O)O)C(O[C@@H]8OC(C(=O)O)=C[C@H](O)C8OS(=O)(=O)O)[C@H](O)[C@H]7NC(C)=O)[C@H](O)[C@H]6O)[C@H](O)[C@H]5NC(C)=O)[C@H](O)[C@H]4O)[C@H](O)[C@H]3NC(C)=O)[C@H](O)[C@H]2O)[C@H](O)[C@H]1NC(C)=O (stereo partly specified) &field=TCF/Wnt firefly luciferase reporter signal returns 0.977

====

System: DLD1
protocol.description: TCF/Wnt firefly luciferase reporter signal relative to plate median (fraction of plate median); higher = higher Wnt reporter signal
measurement.context: 10 µM; treatment time 24 h; reporter: TCF4/Wnt
# if value of TCF/Wnt firefly luciferase reporter signal reaches 1, tag Yes; if it stays below, tag No

Here are 3 compounds together with their reported answers.
compound: Cc1[nH]c(/C=C2\C(=O)Nc3ccc(S(=O)(=O)N(C)c4cccc(Cl)c4)cc32)c(C)c1C(=O)N1CCN(C)CC1
class.name: No
//
compound: C[C@@H]1COC(Nc2ccc3ncnc(Nc4ccc(OCc5nccs5)c(Cl)c4)c3c2)=N1
class.name: Yes
//
compound: CCn1nnc2c(N3CCOCC3)nc(-c3ccc(NC(=O)Nc4ccc(C(=O)N5CCN(C)CC5)cc4)cc3)nc21
class.name: Yes

Ask: Check this compound for TCF/Wnt firefly luciferase reporter signal at or above 1: Cc1cc(Nc2nc(N[C@@H](C)c3ccc(F)cc3)c(C#N)cc2F)n[nH]1
Reply: Yes

Ask: Could you tell me if the measured TCF/Wnt firefly luciferase reporter signal of O=C(O)c1ccc2c(c1)nc(Nc1cccc(Cl)c1)c1ccncc12 [cx-4945 (Silmitasertib)] reaches 1 or more?
Reply: No

Ask: Exam item: decide whether the reported TCF/Wnt firefly luciferase reporter signal for O=C(Nc1cccc(Cl)c1)Nc1ncc(CCNc2ncnc3ccsc23)s1 is at least 1.
Reply: No

Ask: # bool: TCF/Wnt firefly luciferase reporter signal of COc1ccc2c3n(c(=NC(=O)c4cccnc4)nc2c1OC)CCN3 >= 1
Reply: Yes

Ask: In plain terms: is recorded TCF/Wnt firefly luciferase reporter signal at least 1 for Nc1nc(N)c2nc(-c3cccc(O)c3)c(-c3cccc(O)c3)nc2n1 ?
Reply: Yes
